- assayed target: CB1 (CNR1) (Homo sapiens, UniProt P21554)
- Sequence (P21554 whole entry): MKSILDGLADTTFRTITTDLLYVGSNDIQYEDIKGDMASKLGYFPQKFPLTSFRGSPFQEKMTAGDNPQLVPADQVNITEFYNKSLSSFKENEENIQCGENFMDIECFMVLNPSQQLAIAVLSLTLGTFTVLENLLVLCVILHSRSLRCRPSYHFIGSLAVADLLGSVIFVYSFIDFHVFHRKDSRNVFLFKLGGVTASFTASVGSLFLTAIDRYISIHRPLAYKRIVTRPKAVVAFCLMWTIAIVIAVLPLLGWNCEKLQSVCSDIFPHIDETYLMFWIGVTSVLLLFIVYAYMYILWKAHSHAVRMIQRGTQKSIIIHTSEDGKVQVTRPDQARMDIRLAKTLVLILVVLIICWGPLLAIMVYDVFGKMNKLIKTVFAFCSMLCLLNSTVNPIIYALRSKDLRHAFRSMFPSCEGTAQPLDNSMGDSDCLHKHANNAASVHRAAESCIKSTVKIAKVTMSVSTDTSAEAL
- experiment summary: cAMP CNR1 Hunter cell line antagonist assay (CB1 assay)
- measurement context: antagonist mode, cAMP CNR1 Hunter cells, EC80 agonist; read-out: CB1 assay, Efficacy (IC50)
pIC50: −log10 of the molar value.
# maps each entry to its pIC50

Known results for molecules:
input: Please report pIC50 for the following molecule: CC1Oc2cc(S(=O)(=O)Nc3ccc(F)cc3F)c(Br)cc2N(C)C1=O (stereo not shown)
output: ≤ 4.60

input: Give the value of pIC50 reported for the following: CCNS(=O)(=O)c1cc2c(cc1Cl)NC(=O)C(C)O2 (stereo not shown)
output: ≤ 4.60

input: Note pIC50 for the molecule shown: `CS(=O)(=O)c1cc2c(c(S(=O)(=O)Nc3ccc(F)cc3F)c1)OCC(=O)N2`
output: ≤ 4.60

input: Quick one: give measured pIC50 for CCOc1ccc(NS(=O)(=O)c2cc(Cl)cc3c2OC(C)C(=O)N3)cc1 (stereo not shown)
output: 4.60 to 6.00

input: For CCc1cccc(NS(=O)(=O)c2cc3c(cc2Br)NC(=O)C(CC(C)C)O3)c1 (stereo not shown) , write its pIC50.
output: 4.60 to 6.00

input: Tell us which pIC50 value is on record for `O=C1COc2c(cc(Cl)cc2S(=O)(=O)Nc2ccc(Cl)cc2)N1`
output: > 6.00

input: Report pIC50 for `CC(=O)N1CC(=O)Nc2ccc(S(=O)(=O)N3CCCC3)cc21`
output: ≤ 4.60

input: # return recorded pIC50 for entry CC1Oc2c(cc(Br)cc2S(=O)(=O)NC2CCC(C(C)(C)C)CC2)NC1=O (stereo not shown)
output: ≤ 4.60

Further cases:
input: Give the measured pIC50 for COc1ccc(NS(=O)(=O)c2cc3c(cc2Cl)NC(=O)C(C)O3)cc1 (stereo not shown)
output: ≤ 4.60

input: Give reported pIC50 value for CC1Oc2cc(S(=O)(=O)Nc3ccc(F)cc3Cl)c(Cl)cc2NC1=O (stereo not shown)
output: 4.60 to 6.00

input: Tell us which pIC50 value is on record for COc1ccc(NS(=O)(=O)c2cc3c(cc2Br)N(C)C(=O)C(C)O3)cc1Cl (stereo not shown)
output: ≤ 4.60

input: Give the reported value of pIC50 for this record: `O=C1COc2c(cc(Br)cc2S(=O)(=O)NCc2ccc(F)cc2F)N1`
output: ≤ 4.60

input: Supply reported pIC50 belonging to this molecule: `CC(C)c1ccc(NS(=O)(=O)c2cc3c(cc2Cl)NC(=O)CO3)cc1`
output: > 6.00

----------
- assayed target: CB1 (CNR1) (Homo sapiens, UniProt P21554)
- experiment summary: cAMP CNR1 Hunter cell line antagonist assay (CB1 assay)
- measurement context: antagonist mode, cAMP CNR1 Hunter cells, EC80 agonist; read-out: CB1 assay, Efficacy (IC50)
pIC50: −log10 of the molar value.
Listed compounds paired with reported pIC50

Worked cases, pIC50 given:
input: Recall and state the measured pIC50 for CCC1Oc2c(cc(Br)cc2S(=O)(=O)NCCc2ccc(OC(F)(F)F)cc2)NC1=O (stereo not shown) .
output: 4.60 to 6.00

input: Provide one value: measured pIC50 of `CNC(=O)N1CC(=O)Nc2ccc(S(=O)(=O)N3CCCC3)cc21`
output: 4.60 to 6.00

input: Supply pIC50 value. Item: CCC1Oc2c(cc(Br)cc2S(=O)(=O)Nc2ccc(OC)cc2)N(C)C1=O (stereo not shown)
output: ≤ 4.60

input: Supply pIC50 value. Item: CCC1Oc2c(cc(Cl)cc2S(=O)(=O)Nc2ccc(F)cc2)NC1=O (stereo not shown)
output: 4.60 to 6.00

Others:
input: Please report the measured pIC50 for `CCc1ccc(NS(=O)(=O)c2cc(S(=O)(=O)CC)cc3c2OCC(=O)N3)cc1`
output: ≤ 4.60

input: Respond only with pIC50 recorded for COc1ccc(NS(=O)(=O)c2cc(Cl)cc3c2OC(C)C(=O)N3)cc1Cl (stereo not shown)
output: 4.60 to 6.00

input: Tell me pIC50 reported for `O=C1CCOc2cc(S(=O)(=O)Nc3ccc(F)cc3)c(Br)cc2N1`
output: ≤ 4.60
